- measured.target: EGFR wild type (Homo sapiens)
- Construct: purchased Carna Bio
- Sequence (P00533 25-1210): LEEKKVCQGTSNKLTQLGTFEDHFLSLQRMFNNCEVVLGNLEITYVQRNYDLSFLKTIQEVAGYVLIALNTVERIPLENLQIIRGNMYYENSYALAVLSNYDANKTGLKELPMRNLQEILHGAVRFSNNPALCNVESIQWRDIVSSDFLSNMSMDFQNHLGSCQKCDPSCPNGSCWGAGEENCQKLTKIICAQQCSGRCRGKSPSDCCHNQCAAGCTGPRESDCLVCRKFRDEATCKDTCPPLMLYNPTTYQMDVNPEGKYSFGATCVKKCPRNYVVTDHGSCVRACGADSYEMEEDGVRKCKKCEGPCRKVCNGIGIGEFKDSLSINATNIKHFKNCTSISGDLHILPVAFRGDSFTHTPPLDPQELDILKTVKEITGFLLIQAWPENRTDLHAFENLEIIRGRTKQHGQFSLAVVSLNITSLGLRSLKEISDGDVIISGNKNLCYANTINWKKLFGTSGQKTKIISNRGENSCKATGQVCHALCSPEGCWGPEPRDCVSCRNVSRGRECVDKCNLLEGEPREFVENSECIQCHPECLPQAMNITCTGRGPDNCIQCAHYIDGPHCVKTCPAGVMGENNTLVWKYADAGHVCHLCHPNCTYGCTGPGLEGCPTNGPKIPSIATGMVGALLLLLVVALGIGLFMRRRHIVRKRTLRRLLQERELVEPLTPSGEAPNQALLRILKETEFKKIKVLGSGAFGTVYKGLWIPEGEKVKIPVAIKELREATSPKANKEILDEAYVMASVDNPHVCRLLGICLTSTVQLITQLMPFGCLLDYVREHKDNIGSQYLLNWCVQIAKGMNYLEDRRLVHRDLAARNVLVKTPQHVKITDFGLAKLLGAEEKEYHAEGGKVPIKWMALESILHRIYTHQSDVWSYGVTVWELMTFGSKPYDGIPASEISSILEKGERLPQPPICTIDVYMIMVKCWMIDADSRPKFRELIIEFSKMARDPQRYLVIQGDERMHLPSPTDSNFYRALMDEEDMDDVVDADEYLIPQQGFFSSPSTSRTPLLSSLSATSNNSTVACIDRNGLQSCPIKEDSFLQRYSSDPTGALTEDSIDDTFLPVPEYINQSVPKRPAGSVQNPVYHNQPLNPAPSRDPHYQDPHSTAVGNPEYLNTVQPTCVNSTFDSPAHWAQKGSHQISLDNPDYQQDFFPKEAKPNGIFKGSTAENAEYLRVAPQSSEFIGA
- experimental.details: Inhibition of EGFR wild type biochemical enzymatic activity (HTRF)
- protocol.conditions: EGFR wild type, 1 mM ATP, 1 h at room temperature, read-out: IC50 @WT
pIC50: −log10 of the molar value.
readout.name: pIC50

compound	pIC50
Cc1cc2cc(n1)-c1cnn(C)c1OCCN1CC3CCC(C3)(C1)n1c(nc3ccc(N4CCC(N5CCOCC5)C4)cc31)NC2=O (single isomer, unassigned) [Example B44B2]	5.31

I. CCN1CCN(c2ccc3nc4n(c3c2)C23CCC(CN(CCOc5c(cnn5C)-c5cc(cc(C)n5)C(=O)N4)C2)C3)CC1 (single isomer, unassigned) [Example B56B]
II. Cc1cc2cc(n1)-c1cnn(C)c1OCCN1CC3CCC(C3)(C1)n1c(nc3ccc(N4CCC5(CC4)CCN5C)cc31)NC2=O (single isomer, unassigned) [Example B54B]
Endpoint returns whichever of I and II has the numerically higher pIC50. Could you answer with the label of the item you picked? II

----------
- measured.target: EGFR (C797S L858R) (Homo sapiens, UniProt P00533, C797S/L858R)
- Construct: purchased signalchem
- Sequence (P00533 25-1210 C797S/L858R): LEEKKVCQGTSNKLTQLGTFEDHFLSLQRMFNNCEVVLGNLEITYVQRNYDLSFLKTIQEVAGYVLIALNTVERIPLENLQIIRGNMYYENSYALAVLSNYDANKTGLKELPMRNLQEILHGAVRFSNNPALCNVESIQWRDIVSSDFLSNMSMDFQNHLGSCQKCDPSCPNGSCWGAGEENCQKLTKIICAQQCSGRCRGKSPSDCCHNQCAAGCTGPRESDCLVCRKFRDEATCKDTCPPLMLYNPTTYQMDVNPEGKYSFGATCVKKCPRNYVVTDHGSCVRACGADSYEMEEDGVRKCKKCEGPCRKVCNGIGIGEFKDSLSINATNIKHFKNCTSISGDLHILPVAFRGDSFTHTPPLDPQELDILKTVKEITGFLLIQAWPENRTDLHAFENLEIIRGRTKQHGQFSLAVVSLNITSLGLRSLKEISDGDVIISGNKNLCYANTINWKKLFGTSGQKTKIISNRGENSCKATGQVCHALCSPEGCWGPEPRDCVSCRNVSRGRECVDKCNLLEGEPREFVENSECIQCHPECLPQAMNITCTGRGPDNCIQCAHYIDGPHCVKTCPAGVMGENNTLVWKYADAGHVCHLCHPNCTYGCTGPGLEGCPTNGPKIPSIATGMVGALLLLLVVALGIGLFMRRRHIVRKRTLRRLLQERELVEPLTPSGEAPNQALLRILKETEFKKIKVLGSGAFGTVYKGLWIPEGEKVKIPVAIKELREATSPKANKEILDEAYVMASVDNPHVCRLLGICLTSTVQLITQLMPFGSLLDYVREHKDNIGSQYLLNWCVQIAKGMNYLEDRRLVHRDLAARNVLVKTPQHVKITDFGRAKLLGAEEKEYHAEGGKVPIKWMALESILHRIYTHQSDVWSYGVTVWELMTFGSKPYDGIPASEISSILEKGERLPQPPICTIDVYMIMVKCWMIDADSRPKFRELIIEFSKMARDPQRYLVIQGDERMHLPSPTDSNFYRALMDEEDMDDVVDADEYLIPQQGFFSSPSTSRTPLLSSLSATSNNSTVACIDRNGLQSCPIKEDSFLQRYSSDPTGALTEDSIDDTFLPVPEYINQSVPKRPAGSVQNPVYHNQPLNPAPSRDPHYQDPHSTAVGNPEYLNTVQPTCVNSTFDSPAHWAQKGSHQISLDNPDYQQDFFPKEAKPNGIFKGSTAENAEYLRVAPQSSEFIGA
- experimental.details: Inhibition of EGFR (C797S L858R) biochemical enzymatic activity (HTRF)
- protocol.conditions: EGFR L858-C797S, 1 mM ATP, 1 h, room temperature, read-out: IC50 (nM) @L858-C797S
readout.name: IC50 (nM)

As a guide, the following entries are already answered.
molecule	IC50, nM
CN(C)CCN(C)c1ccc2nc3n(c2c1)C12CCC(CC1)CN(CCOc1c(cnn1C)-c1cc(cn(C)c1=O)C(=O)N3)C2	76
CN(C)C1CN(c2ccc3nc4n(c3c2)C23CCC(CN(CCOc5c(cnn5C)-c5cc(cn(C)c5=O)C(=O)N4)C2)C3)C1 (single isomer, unassigned) [Example A65B]	7.4
CN1CCC2(CCN(c3ccc4nc5n(c4c3)C34CCC(CN(CCOc6c(cnn6C)-c6cc(cn(C)c6=O)C(=O)N5)C3)C4)CC2)C1 (single isomer, unassigned) [Example A82B]	1.4
CCN1CCN(c2ccc3nc4n(c3c2)C23CCC(CN(CCOc5c(cnn5C)-c5cc(cn(C)c5=O)C(=O)N4)C2)C3)CC1 (single isomer, unassigned) [Example A107B]	1.9
Cn1ncc2c1OCCN1CC3CCC(CC3)(C1)n1c(nc3ccc(N4CCN(C5CC5)CC4)cc31)NC(=O)c1cc-2c(=O)n(C)c1	49
CN1CC2(CCN(c3ccc4nc5n(c4c3)C34CCC(CN(CCOc6c(cnn6C)-c6cc(cn(C)c6=O)C(=O)N5)C3)C4)C2)C1 (single isomer, unassigned) [Example A73B]	2.9
Cn1ncc2c1OCCN1CC3CCC(C3)(C1)n1c(nc3ccccc31)NC(=O)c1cc-2c(=O)n(C)c1 (centres unmarked) [Example A61B]	146
CN1CC2CN(c3ccc4nc5n(c4c3)C34CCC(CN(CCOc6c(cnn6C)-c6cc(cn(C)c6=O)C(=O)N5)C3)C4)CC2C1 (single isomer, unassigned) [Example A68B]	3.1
CN1CCC2(CC1)CCN(c1ccc3nc4n(c3c1)C13CCC(CN(CCOc5c(cnn5C)-c5cc(cn(C)c5=O)C(=O)N4)C1)C3)C2 (single isomer, unassigned) [Example A88B]	4.2
C[C@@H]1CCCOc2c(cnn2C2CC2)-c2cc(cn(C)c2=O)C(=O)Nc2nc3ccc(N4CCN(C)CC4)cc3n2C1	25

P. CN1CC2(C1)CN(c1ccc3nc4n(c3c1)C13CCC(CN(CCOc5c(cnn5C)-c5cc(cn(C)c5=O)C(=O)N4)C1)C3)C2 (single isomer, unassigned) [Example A92B]
Q. C[C@@H]1CCCOc2ccccc2-c2cc(cn(C)c2=O)C(=O)Nc2nc3ccc(N4CCN(C)CC4)cc3n2C1
R. C[C@@H]1CCCOc2c(cnn2C)-c2cc(cn(C)c2=O)C(=O)Nc2nc3ccc(N4CC5(CCN(C)CC5(F)F)C4)cc3n2C1
Sort ascending by IC50. Rank them, then answer with their labels in that order. P, Q, R
(P: 2.6 nM, Q: 9.8 nM, R: 22 nM)

P. C[C@@H]1CCCOc2c(cnn2C)-c2cc(cn(C)c2=O)C(=O)Nc2nc3ccc(N4CCC(N5CCN(C)CC5)C4)cc3n2C1 (some centres unmarked)
Q. CN1CCN(c2ccc3nc4n(c3c2)CCN(CC(F)(F)F)CCOc2c(cnn2C2CC2)-c2cc(cn(C)c2=O)C(=O)N4)CC1
R. CN1CCC2(CC1)CCN(c1ccc3nc4n(c3c1)C13CCC(CC1)CN(CCOc1c(cnn1C)-c1cc(cn(C)c1=O)C(=O)N4)C3)C2
S. C[C@@H]1CCCOc2c(cnn2C)-c2cc(cn(C)c2=O)C(=O)Nc2nc3ccc(N4CCC(N(C)C)C(F)(F)C4)cc3n2C1 (some centres unmarked)
Sort ascending by IC50. Rank them, then answer with their labels in that order. Q, P, S, R

----------
Parameter pIC50: see the listing below.
- measured.target: EGFR Exon19Del (Homo sapiens, UniProt P00533, DEL746-750)
- Construct: purchased Carna Bio
- Sequence (P00533 with tags, fused parts or gaps DEL746-750 limits assumed): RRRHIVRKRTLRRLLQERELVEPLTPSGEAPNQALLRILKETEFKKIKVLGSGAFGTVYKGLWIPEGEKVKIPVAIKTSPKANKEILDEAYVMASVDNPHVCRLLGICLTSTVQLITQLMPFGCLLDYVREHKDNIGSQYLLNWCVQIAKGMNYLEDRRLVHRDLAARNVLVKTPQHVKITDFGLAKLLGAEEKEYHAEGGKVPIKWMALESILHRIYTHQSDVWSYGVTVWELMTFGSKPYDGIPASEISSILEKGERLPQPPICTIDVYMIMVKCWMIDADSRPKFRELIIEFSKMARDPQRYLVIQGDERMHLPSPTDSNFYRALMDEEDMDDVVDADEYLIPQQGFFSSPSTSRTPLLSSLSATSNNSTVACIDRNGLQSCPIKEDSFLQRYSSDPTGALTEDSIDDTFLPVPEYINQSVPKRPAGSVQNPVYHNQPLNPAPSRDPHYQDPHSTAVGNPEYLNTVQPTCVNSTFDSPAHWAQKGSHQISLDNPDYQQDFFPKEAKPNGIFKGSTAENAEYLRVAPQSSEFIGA
- experimental.details: Inhibition of EGFR Exon19Del biochemical enzymatic activity (HTRF)
- protocol.conditions: EGFR Exon19Del, 1 mM ATP, 1 h at room temperature, read-out: IC50 @Del19
pIC50: −log10 of the molar value.

compound	pIC50
Cc1cc2cc(n1)-c1cnn(C)c1OCCCCCn1c(nc3ccc4c(c31)CCN(C1COC1)C4)NC2=O [Example B17]	< 5.30
Cc1cc2cc(n1)-c1cnn(C)c1OCCN1CC3CCC(C3)(C1)n1c(nc3ccc(N4CCC(N5CCOCC5)C4)cc31)NC2=O (single isomer, unassigned) [Example B44A2]	< 5.30
Cc1cc2cc(n1)-c1cnn(C)c1OCCN1CC3CCC(C3)(C1)n1c(nc3ccc(N4CCC(N5CCN(C)CC5)CC4)cc31)NC2=O (single isomer, unassigned) [Example B59B]	7.92
Cc1cc2cc(n1)-c1cc(=O)n(C)cc1OCCC[C@@H](C)Cn1c(nc3ccccc31)NC2=O [Example B11]	< 5.30
Cc1cc2cc(n1)-c1cnn(C)c1OCCN1CC3CCC(C3)(C1)n1c(nc3ccc(N4CCC(N5CCN(C)CC5)C4)cc31)NC2=O (single isomer, unassigned) [Example B49B]	8.10

Now, please, on to the next compound.
Value of measured pIC50 for the entry Cc1cc2cc(n1)-c1cnn(C)c1OCCN1CC3CCC(C3)(C1)n1c(nc3ccc(N4CCC5(CCN(C)CC5)C4)cc31)NC2=O (single isomer, unassigned) [Example B51A] : < 5.30

----------
- measured.target: EGFR (C797S L858R) (Homo sapiens, UniProt P00533, C797S/L858R)
- Construct: purchased signalchem
- experimental.details: Inhibition of EGFR (C797S L858R) biochemical enzymatic activity (HTRF)
- protocol.conditions: EGFR L858-C797S, 1 mM ATP, 1 h, room temperature, read-out: IC50 (nM) @L858-C797S
readout.name: IC50 (nM)

compound	measured.target	unit.spec	IC50
CN1CCN(c2ccc3nc4n(c3c2)C23CCC(CC2)CN(CCOc2c(cnn2C)-c2cc(cn(C)c2=O)C(=O)N4)C3)CC1	EGFR (C797S L858R) (Homo sapiens, UniProt P00533, C797S/L858R)	nM	35

P. CN1CCOC2(C1)CN(c1ccc3nc4n(c3c1)C13CCC(CN(CCOc5c(cnn5C)-c5cc(cn(C)c5=O)C(=O)N4)C1)C3)C2 (single isomer, unassigned) [Example A86A]
Q. CC(C)N1CCN(c2ccc3nc4n(c3c2)C23CCC(CN(CCOc5c(cnn5C)-c5cc(cn(C)c5=O)C(=O)N4)C2)C3)CC1 (single isomer, unassigned) [Example A108B]
Endpoint returns whichever of P and Q has the numerically higher IC50. Could you answer with the label of the item you picked? P
(P: 2820 nM, Q: 1.5 nM)

----------
- measured.target: EGFR Exon19Del/T790M (Homo sapiens, UniProt P00533, DEL746-750/T790M)
- Construct: purchased Carna Bio
- Sequence (P00533 with tags, fused parts or gaps DEL746-750/T790M limits assumed): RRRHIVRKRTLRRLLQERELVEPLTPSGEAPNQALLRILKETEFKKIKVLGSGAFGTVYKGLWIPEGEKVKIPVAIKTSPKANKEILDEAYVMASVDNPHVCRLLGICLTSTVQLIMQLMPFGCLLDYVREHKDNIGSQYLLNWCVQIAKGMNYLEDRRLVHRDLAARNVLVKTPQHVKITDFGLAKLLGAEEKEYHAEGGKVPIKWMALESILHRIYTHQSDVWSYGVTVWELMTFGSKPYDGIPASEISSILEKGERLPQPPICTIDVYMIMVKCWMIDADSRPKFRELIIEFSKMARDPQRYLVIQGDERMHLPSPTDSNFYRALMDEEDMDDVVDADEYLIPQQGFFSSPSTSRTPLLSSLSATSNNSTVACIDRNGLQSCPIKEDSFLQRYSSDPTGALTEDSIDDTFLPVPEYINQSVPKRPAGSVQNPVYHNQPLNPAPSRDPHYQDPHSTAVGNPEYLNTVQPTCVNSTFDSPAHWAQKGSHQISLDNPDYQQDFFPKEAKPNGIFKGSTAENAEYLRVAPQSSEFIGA
- experimental.details: Inhibition of EGFR Exon19Del/T790M biochemical enzymatic activity (HTRF)
- protocol.conditions: EGFR Del19-T790M, 1 mM ATP, 1 h, room temperature, read-out: IC50 (nM) @Del19-T790M
readout.name: IC50 (nM)

As a guide, the following entries are already answered.
compound	IC50 [nM]
CN(C)[C@@H]1CCN(c2ccc3nc4n(c3c2)C23CCC(CC2)CN(CCOc2c(cnn2C)-c2cc(cn(C)c2=O)C(=O)N4)C3)C1 [Example A121]	21
Cn1ncc2c1OCCN(CC(F)(F)F)CCn1c(nc3ccccc31)NC(=O)c1cc-2c(=O)n(C)c1 [Example A1]	47
CN1CC2CN(c3ccc4nc5n(c4c3)C34CCC(CN(CCOc6c(cnn6C)-c6cc(cn(C)c6=O)C(=O)N5)C3)C4)CC2C1 (single isomer, unassigned) [Example A68B]	1.8
C[C@@H]1CCCOc2c(cnn2C)-c2cc(cn(C)c2=O)C(=O)Nc2nc3ccc(N4CCNCC4)c(Cl)c3n2C1 [Example A23]	3
CCN1CCN(c2ccc3nc4n(c3c2)C23CCC(CN(CCOc5c(cnn5C)-c5cc(cn(C)c5=O)C(=O)N4)C2)C3)CC1 (single isomer, unassigned) [Example A107B]	1.8
CN(C)[C@@H]1CCN(c2ccc3nc4n(c3c2)C23CCC(CN(CCOc5c(cnn5C)-c5cc(cn(C)c5=O)C(=O)N4)C2)C3)C1 (single isomer, unassigned) [Example A66D]	2

a. Cn1ncc2c1OCCN1CC3CCC(C3)(C1)n1c(nc3ccccc31)NC(=O)c1cc-2c(=O)n(C)c1 (centres unmarked) [Example A61B]
b. CN(C)C1CCN(c2ccc3nc4n(c3c2)C23CCC(CC2)CN(CCOc2c(cnn2C)-c2cc(cn(C)c2=O)C(=O)N4)C3)CC1 [Example A119]
c. CN(C)CCC1CN(c2ccc3nc4n(c3c2)C23CCC(CN(CCOc5c(cnn5C)-c5cc(cn(C)c5=O)C(=O)N4)C2)C3)C1 (single isomer, unassigned) [Example A95B]
d. CCn1cc2cc(c1=O)-c1cnn(C)c1OCCC[C@@H](C)Cn1c(nc3ccc(N4CCN(C)CC4)cc31)NC2=O [Example A14]
Returns the items ordered by IC50, from maximum to minimum. Rank them, then answer with their labels in that order. d, b, c, a
(d: 132 nM, b: 6.6 nM, c: 3.1 nM, a: 1.8 nM)

P. C[C@@H]1CCCOc2c(cnn2C)-c2cc(cn(C)c2=O)C(=O)Nc2nc3ccc4c(c3n2C1)CCNC4 [Example A102]
Q. CN1CCN(C2CCN(c3ccc4nc5n(c4c3)C34CCC(CN(CCOc6c(cnn6C)-c6cc(cn(C)c6=O)C(=O)N5)C3)C4)CC2)CC1 (single isomer, unassigned) [Example A106B]
Endpoint returns whichever of P and Q has the numerically higher IC50. Could you answer with the label of the item you picked? P
(P: 5.7 nM, Q: 2.2 nM)

Where do the numbers come from? From patent US20260365670A1.
